# assay-comment: Pharmacokinetics experiment in rats
# Type: in vivo
# experimental-setup: rat; male SD rats, oral dosing 20 mg/kg, plasma; read-out: Area under the curve (AUC)
property-name: AUC (ng·h/mL)

INSERT INTO measurements (compound, unit_abbreviation, recorded_value) VALUES
  ('CCN(c1cc(-c2ccc3c(c2)CCC3N2CCOCC2)c(Cl)c(C(=O)NCc2c(OC)cc(C)[nH]c2=O)c1C)C1CCOCC1 (stereo not shown)', 'ng·h/mL', 1310),
  ('CCN(c1cc(N2Cc3ccc(N4CCOCC4)cc3C2)cc(C(=O)NCc2c(C)cc(C)[nH]c2=O)c1C)C1CCOCC1', 'ng·h/mL', 1660),
  ('CCN(c1cc(N2CCc3ccccc3C2)cc(C(=O)NCc2c(C)cc(C)[nH]c2=O)c1C)C1CCOCC1', 'ng·h/mL', 1190),
  ('CCN(c1cc(-c2ccc3c(c2)CCC3N2CCOCC2)c(F)c(C(=O)NCc2c(C)cc(C)[nH]c2=O)c1C)C1CCOCC1 (stereo not shown)', 'ng·h/mL', 1270);

* * *

# assay-comment: Pharmacokinetics experiment in rats
# Assay type: in vivo
# experimental-setup: rat; male SD rats, intravenous dosing 4 mg/kg, plasma; read-out: Half life (T1/2) (converted)
property-name: half-life (h)

INSERT INTO results (compound, recorded_value) VALUES
  ('CCN(c1cc(-c2ccc3c(c2)CCC3N2CCOCC2)cc(C(=O)NCc2c(C)cc(C)[nH]c2=O)c1C)C1CC(C)OC(C)C1 (stereo not shown)', 1.34),
  ('CCN(c1cc(-c2ccc3c(c2)CCC3N2CCOCC2)c(Cl)c(C(=O)NCc2c(OC)cc(C)[nH]c2=O)c1C)C1CCOCC1 (stereo not shown)', 1.42),
  ('CCN(c1cc(N2CCc3ccccc3C2)cc(C(=O)NCc2c(C)cc(C)[nH]c2=O)c1C)C1CCOCC1', 1.87),
  ('CCN(c1cc(N2Cc3ccccc3C2)cc(C(=O)NCc2c(C)cc(C)[nH]c2=O)c1C)C1CCOCC1', 1.42);

* * *

# assay-comment: Pharmacokinetics experiment in rats
# Type: in vivo
# experimental-setup: rat; male SD rats, oral dosing 20 mg/kg, plasma; read-out: Blood drug level (Cmax)
property-name: Cmax (µg/mL)

INSERT INTO measurements (compound, unit_abbreviation, recorded_value) VALUES
  ('CCN(c1cc(-c2ccc3c(c2)CCC3N2CCOCC2)c(Cl)c(C(=O)NCc2c(OC)cc(C)[nH]c2=O)c1C)C1CCOCC1 (stereo not drawn)', 'µg/mL', 0.48),
  ('CCN(c1cc(N2Cc3cn(C)cc3C2)cc(C(=O)NCc2c(C)cc(C)[nH]c2=O)c1C)C1CCOCC1', 'µg/mL', 0.426),
  ('CCN(c1cc(-c2ccc3c(c2)CCC3N2CCOCC2)cc(C(=O)NCc2c(OC)cc(C)[nH]c2=O)c1C)C1CCOCC1 (stereo not drawn)', 'µg/mL', 0.456),
  ('CCN(c1cc(-c2ccc3c(c2)CCC3N2CCOCC2)c(F)c(C(=O)NCc2c(C)cc(C)[nH]c2=O)c1C)C1CCOCC1 (stereo not drawn)', 'µg/mL', 0.489),
  ('CCN(c1cc(-c2ccc3c(c2)CCC3N2CCOCC2)cc(C(=O)NCc2c(C)cc(C)[nH]c2=O)c1C)C1CC(C)OC(C)C1 (stereo not drawn)', 'µg/mL', 0.403),
  ('CCN(c1cc(N2CCc3ccccc3C2)cc(C(=O)NCc2c(C)cc(C)[nH]c2=O)c1C)C1CCOCC1', 'µg/mL', 0.433),
  ('CCN(c1cc(N2Cc3ccccc3C2)cc(C(=O)NCc2c(C)cc(C)[nH]c2=O)c1C)C1CCOCC1', 'µg/mL', 0.5),
  ('CCN(c1cc(-c2ccc3c(c2)CCC3N2CCOCC2)c(Cl)c(C(=O)NCc2c(C)cc(C)[nH]c2=O)c1C)C1CCOCC1 (stereo not drawn)', 'µg/mL', 0.405),
  ('CCN(c1cc(N2Cc3ccc(N4CCOCC4)cc3C2)cc(C(=O)NCc2c(C)cc(C)[nH]c2=O)c1C)C1CCOCC1', 'µg/mL', 0.457);

* * *

# pIC50 measurements, system: wild-type EZH2 (Homo sapiens)
# Sequence (Q15910 whole entry): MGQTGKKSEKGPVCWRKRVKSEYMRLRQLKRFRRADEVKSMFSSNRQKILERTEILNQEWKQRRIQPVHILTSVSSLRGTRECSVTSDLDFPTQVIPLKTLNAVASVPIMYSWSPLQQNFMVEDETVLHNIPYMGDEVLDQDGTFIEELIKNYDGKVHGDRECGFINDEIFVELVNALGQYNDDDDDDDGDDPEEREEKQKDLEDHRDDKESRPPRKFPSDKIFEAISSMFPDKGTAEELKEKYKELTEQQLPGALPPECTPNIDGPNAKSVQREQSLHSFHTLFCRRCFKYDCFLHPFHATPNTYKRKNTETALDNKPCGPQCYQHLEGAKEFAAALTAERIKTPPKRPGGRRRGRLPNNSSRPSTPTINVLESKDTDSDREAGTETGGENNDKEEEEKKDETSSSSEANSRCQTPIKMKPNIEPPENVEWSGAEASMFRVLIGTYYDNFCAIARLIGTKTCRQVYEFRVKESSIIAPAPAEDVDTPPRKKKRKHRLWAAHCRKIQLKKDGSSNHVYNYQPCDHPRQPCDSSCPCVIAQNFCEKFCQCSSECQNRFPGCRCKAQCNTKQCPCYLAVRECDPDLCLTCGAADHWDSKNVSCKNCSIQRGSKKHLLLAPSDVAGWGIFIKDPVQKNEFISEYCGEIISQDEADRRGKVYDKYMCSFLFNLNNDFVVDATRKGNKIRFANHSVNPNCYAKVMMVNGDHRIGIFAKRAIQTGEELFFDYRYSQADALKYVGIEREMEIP
# Sequence (O75530 whole entry partner): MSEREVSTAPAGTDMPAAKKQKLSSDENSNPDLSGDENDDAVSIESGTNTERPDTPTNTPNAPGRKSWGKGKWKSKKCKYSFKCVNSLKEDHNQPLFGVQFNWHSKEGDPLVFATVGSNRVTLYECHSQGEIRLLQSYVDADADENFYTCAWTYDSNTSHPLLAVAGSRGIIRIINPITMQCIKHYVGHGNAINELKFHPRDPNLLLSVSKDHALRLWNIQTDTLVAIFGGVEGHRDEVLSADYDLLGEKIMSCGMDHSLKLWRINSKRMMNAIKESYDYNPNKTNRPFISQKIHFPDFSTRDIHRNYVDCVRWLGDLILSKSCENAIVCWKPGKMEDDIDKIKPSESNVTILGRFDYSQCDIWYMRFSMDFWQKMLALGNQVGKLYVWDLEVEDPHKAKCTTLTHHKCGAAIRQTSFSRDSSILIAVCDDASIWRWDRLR
# Sequence (Q15022 whole entry partner): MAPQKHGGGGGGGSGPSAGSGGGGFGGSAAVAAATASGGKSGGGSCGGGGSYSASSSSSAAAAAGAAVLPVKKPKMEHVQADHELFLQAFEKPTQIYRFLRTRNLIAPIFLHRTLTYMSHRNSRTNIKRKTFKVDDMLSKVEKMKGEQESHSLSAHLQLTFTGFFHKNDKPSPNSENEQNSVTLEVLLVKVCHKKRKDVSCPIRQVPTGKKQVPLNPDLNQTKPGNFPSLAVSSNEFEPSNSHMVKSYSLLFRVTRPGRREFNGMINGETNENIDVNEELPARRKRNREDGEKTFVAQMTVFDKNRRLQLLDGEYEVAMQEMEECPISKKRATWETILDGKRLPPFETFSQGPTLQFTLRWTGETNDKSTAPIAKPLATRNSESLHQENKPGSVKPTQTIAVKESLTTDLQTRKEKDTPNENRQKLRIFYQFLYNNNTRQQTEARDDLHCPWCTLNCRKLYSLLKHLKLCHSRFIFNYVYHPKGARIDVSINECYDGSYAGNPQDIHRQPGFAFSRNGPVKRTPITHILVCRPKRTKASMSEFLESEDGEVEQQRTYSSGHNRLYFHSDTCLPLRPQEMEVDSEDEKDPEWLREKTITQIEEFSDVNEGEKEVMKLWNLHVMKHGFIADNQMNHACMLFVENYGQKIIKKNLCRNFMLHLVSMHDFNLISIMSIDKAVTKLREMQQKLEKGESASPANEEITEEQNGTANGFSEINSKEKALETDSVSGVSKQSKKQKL
# Sequence (Q09028 whole entry partner): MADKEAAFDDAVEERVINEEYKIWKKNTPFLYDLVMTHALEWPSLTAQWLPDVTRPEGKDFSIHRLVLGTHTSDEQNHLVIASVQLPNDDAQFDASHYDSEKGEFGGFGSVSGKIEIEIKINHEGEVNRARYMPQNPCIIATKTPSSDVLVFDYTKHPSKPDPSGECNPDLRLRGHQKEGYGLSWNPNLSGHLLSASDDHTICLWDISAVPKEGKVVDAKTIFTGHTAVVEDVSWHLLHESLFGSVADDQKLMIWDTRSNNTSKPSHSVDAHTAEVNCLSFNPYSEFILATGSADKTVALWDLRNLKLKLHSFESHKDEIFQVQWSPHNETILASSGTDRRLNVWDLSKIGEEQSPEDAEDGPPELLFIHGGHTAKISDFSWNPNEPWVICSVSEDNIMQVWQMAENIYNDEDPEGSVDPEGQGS
pIC50: −log10 of the molar value.
property-name: pIC50

Examples with answers:
INSERT INTO results (compound, recorded_value) VALUES
  ('CCN(c1ccc2c(c1)CN(c1cc(C(=O)NCc3c(C)cc(C)[nH]c3=O)c(C)c(N(CC)C3CCOCC3)c1)C2)C1CCOCC1 [Compound 22]', 9.15),
  ('CCN(c1cc(N2CCc3ccccc3C2)cc(C(=O)NCc2c(C)cc(C)[nH]c2=O)c1C)C1CCOCC1 [Compound 16]', 9.02);

1. CCN(c1cc(-c2cc3c(cc2F)C(N2CCOCC2)CC3)c(F)c(C(=O)NCc2c(C)cc(C)[nH]c2=O)c1C)C1CCOCC1 (stereo not shown) [Compound 28]
2. CCN(c1cc(-c2ccc3c(c2)CCC3N2CCOCC2)cc(C(=O)NCc2c(OC)cc(C)[nH]c2=O)c1C)C1CCOCC1 (stereo not shown) [Compound 6]
Exercise: Lower pIC50: 1 or 2 ? Answer = label.
Solution: 1
(1: 9.04, 2: 9.28)

* * *

# assay-system: Mutant EZH2 (Y641F) (Homo sapiens, UniProt Q15910, Y641F)
# Sequence (Q15910 whole entry Y641F, one chain of several): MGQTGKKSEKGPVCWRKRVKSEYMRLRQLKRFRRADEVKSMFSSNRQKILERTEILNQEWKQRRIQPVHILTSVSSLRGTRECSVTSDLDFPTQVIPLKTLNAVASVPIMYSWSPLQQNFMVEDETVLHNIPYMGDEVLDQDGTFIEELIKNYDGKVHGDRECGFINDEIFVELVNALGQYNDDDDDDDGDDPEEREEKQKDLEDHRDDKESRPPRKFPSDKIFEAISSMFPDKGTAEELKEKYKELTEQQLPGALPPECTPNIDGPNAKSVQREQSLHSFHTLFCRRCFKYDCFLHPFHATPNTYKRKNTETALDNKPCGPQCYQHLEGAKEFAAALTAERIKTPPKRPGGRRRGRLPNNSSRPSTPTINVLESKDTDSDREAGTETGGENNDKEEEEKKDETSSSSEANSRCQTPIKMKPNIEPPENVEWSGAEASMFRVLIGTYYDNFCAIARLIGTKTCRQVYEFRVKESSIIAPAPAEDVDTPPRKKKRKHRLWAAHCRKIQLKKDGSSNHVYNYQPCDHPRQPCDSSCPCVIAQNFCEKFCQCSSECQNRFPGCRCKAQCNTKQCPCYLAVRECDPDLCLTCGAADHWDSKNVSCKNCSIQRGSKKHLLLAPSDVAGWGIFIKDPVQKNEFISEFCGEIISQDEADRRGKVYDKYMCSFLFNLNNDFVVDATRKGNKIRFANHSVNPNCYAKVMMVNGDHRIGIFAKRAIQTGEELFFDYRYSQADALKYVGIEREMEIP
# Sequence (Q6ZN18 whole entry partner, one chain of several): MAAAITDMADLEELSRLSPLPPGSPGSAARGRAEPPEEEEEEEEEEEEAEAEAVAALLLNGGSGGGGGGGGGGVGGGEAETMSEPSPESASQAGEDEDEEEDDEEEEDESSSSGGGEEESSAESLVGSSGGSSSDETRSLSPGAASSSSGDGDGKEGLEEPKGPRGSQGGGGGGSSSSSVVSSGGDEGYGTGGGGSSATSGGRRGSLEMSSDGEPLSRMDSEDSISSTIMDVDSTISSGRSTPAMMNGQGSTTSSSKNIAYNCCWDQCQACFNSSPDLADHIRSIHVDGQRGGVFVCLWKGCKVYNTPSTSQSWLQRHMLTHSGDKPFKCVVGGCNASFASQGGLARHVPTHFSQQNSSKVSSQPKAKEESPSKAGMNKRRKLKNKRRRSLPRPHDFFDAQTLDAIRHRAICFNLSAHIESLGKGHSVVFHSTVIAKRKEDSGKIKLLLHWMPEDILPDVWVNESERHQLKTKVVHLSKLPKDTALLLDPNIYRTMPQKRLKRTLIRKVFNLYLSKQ
# assay-comment: AlphaLISA assay on mutant PRC2 complex, EZH2 Y641F
property-name: IC50 (nM)

Examples with answers:
INSERT INTO results (molecule, property_name, unit_abbreviation, recorded_value) VALUES
  ('CCN(c1cc(N2Cc3ccc(N4CCOCC4)cc3C2)cc(C(=O)NCc2c(C)cc(C)[nH]c2=O)c1C)C1CCOCC1', 'IC50', 'nM', 0.71),
  ('CCN(c1cc(-c2ccc(C3(C#N)CCOCC3)cc2)c(Cl)c(C(=O)NCc2c(C)cc(C)[nH]c2=O)c1C)C1CCOCC1', 'IC50', 'nM', 0.48);

P. CCN(c1cc(N2CCc3ccccc3C2)cc(C(=O)NCc2c(C)cc(C)[nH]c2=O)c1C)C1CCOCC1
Q. CCN(c1cc(-c2ccc3c(c2)CCC3N2CCOCC2)c(F)c(C(=O)NCc2c(C)cc(C)[nH]c2=O)c1C)C1CCOCC1 (stereo not shown)
Exercise: Lower IC50: P or Q ? Answer = label.
Solution: Q

* * *

# assay-comment: Pharmacokinetics experiment in rats
# Format: in vivo
# experimental-setup: rat, plasma; male SD rats, oral 20 mg/kg vs intravenous 4 mg/kg; read-out: Bioavailability (F %)
property-name: bioavailability (%)

INSERT INTO measurements (compound, property_name, unit_abbreviation, recorded_value) VALUES
  ('CCN(c1cc(-c2ccc3c(c2)CCC3N2CCOCC2)c(F)c(C(=O)NCc2c(C)cc(C)[nH]c2=O)c1C)C1CCOCC1 (stereo not drawn)', 'bioavailability', '%', 26.6),
  ('CCN(c1cc(N2Cc3ccc(N4CCOCC4)cc3C2)cc(C(=O)NCc2c(C)cc(C)[nH]c2=O)c1C)C1CCOCC1', 'bioavailability', '%', 34.3),
  ('CCN(c1cc(-c2ccc3c(c2)CCC3N2CCOCC2)c(Cl)c(C(=O)NCc2c(C)cc(C)[nH]c2=O)c1C)C1CCOCC1 (stereo not drawn)', 'bioavailability', '%', 30.6),
  ('CCN(c1cc(N2Cc3cn(C)cc3C2)cc(C(=O)NCc2c(C)cc(C)[nH]c2=O)c1C)C1CCOCC1', 'bioavailability', '%', 26.8),
  ('CCN(c1cc(N2CCc3ccccc3C2)cc(C(=O)NCc2c(C)cc(C)[nH]c2=O)c1C)C1CCOCC1', 'bioavailability', '%', 24.4),
  ('CCN(c1cc(-c2ccc3c(c2)CCC3N2CCOCC2)c(Cl)c(C(=O)NCc2c(OC)cc(C)[nH]c2=O)c1C)C1CCOCC1 (stereo not drawn)', 'bioavailability', '%', 27.4),
  ('CCN(c1cc(N2Cc3ccccc3C2)cc(C(=O)NCc2c(C)cc(C)[nH]c2=O)c1C)C1CCOCC1', 'bioavailability', '%', 34.5),
  ('CCN(c1cc(-c2ccc3c(c2)CCC3N2CCOCC2)cc(C(=O)NCc2c(OC)cc(C)[nH]c2=O)c1C)C1CCOCC1 (stereo not drawn)', 'bioavailability', '%', 33.3),
  ('CCN(c1cc(-c2ccc3c(c2)CCC3N2CCOCC2)cc(C(=O)NCc2c(C)cc(C)[nH]c2=O)c1C)C1CC(C)OC(C)C1 (stereo not drawn)', 'bioavailability', '%', 34.5);

* * *

# assay-comment: Pharmacokinetics experiment in rats
# Assay type: in vivo
# experimental-setup: rat; male SD rats, intravenous dosing 4 mg/kg, plasma; read-out: Area under the curve (AUC)
property-name: AUC (ng·h/mL)

INSERT INTO measurements (molecule, unit_abbreviation, recorded_value) VALUES
  ('CCN(c1cc(-c2ccc3c(c2)CCC3N2CCOCC2)cc(C(=O)NCc2c(OC)cc(C)[nH]c2=O)c1C)C1CCOCC1 (stereo not drawn)', 'ng·h/mL', 966),
  ('CCN(c1cc(N2Cc3ccc(N4CCOCC4)cc3C2)cc(C(=O)NCc2c(C)cc(C)[nH]c2=O)c1C)C1CCOCC1', 'ng·h/mL', 969),
  ('CCN(c1cc(N2Cc3ccccc3C2)cc(C(=O)NCc2c(C)cc(C)[nH]c2=O)c1C)C1CCOCC1', 'ng·h/mL', 893),
  ('CCN(c1cc(N2Cc3cn(C)cc3C2)cc(C(=O)NCc2c(C)cc(C)[nH]c2=O)c1C)C1CCOCC1', 'ng·h/mL', 932),
  ('CCN(c1cc(-c2ccc3c(c2)CCC3N2CCOCC2)cc(C(=O)NCc2c(C)cc(C)[nH]c2=O)c1C)C1CC(C)OC(C)C1 (stereo not drawn)', 'ng·h/mL', 977),
  ('CCN(c1cc(-c2ccc3c(c2)CCC3N2CCOCC2)c(F)c(C(=O)NCc2c(C)cc(C)[nH]c2=O)c1C)C1CCOCC1 (stereo not drawn)', 'ng·h/mL', 954),
  ('CCN(c1cc(-c2ccc3c(c2)CCC3N2CCOCC2)c(Cl)c(C(=O)NCc2c(C)cc(C)[nH]c2=O)c1C)C1CCOCC1 (stereo not drawn)', 'ng·h/mL', 937),
  ('CCN(c1cc(N2CCc3ccccc3C2)cc(C(=O)NCc2c(C)cc(C)[nH]c2=O)c1C)C1CCOCC1', 'ng·h/mL', 975),
  ('CCN(c1cc(-c2ccc3c(c2)CCC3N2CCOCC2)c(Cl)c(C(=O)NCc2c(OC)cc(C)[nH]c2=O)c1C)C1CCOCC1 (stereo not drawn)', 'ng·h/mL', 956);
